assay: Chemical stability of the compound in MEM and RPMI assessed as compound recovery after 72 hrs in presence of foetal calf serum; type: physicochemical; settings: cattle, MEM and RPMI cell culture media with foetal calf serum; read-out: Drug recovery
Measured parameter: remaining at 72 h

**Q:** # input compound: CCCCCCCCCCCCCC(=O)Oc1cccc2c1C(=O)C=CC2=O ; wanted: its remaining at 72 h
**A:** > 95%

###

test system: MCF7; assay: Growth inhibition of human MCF7 cells by MTT assay; format: functional, cell-based
Measured parameter: pIC50
Scale note: pIC50 = -log10(concentration in M).

O=C1C=CC(=O)c2c(O)cccc21 : 4.89
CCCCCCCCCCCCCCCCCC(=O)Oc1cccc2c1C(=O)C=CC2=O : 4.52
CC(C)=CCC/C(C)=C/COc1cccc2c1C(=O)C=C(C)C2=O : 4.40
CCCCCCCCCCCCCC(=O)Oc1cccc2c1C(=O)C=C(C)C2=O : 4.66

**Q:** Give its pIC50 value. Item: CCOc1cccc2c1C(=O)C=CC2=O
**A:** 4.62

###

assay: Growth inhibition of human Hs683 cells by MTT assay; format: functional, cell-based; conditions: Hs 683
Measured parameter: pIC50
For clarity, pIC50 is expressed as the negative log10 of concentration in mol/L.

These recorded examples may help you get a feel for the data.
CCOc1cccc2c1C(=O)C=C(C)C2=O : 5.70
CC(=O)Oc1cccc2c1C(=O)C=C(C)C2=O : 5.30
CCCCCCCCCCCC(=O)Oc1cccc2c1C(=O)C=CC2=O : 4.54
CC1=CC(=O)c2c(O)cccc2C1=O [PLUMBAGIN] : 5.40
C=CCOc1cccc2c1C(=O)C=C(C)C2=O : 5.52
O=C1C=CC(=O)c2c(O)cccc21 [JUGLONE] : 5.15

**Q:** What pIC50 value was documented for this compound, CCCCCCCCCCCC(=O)Oc1cccc2c1C(=O)C=C(C)C2=O ?
**A:** 4.77

**Q:** Please do the same for CC(C)=CCC/C(C)=C/COc1cccc2c1C(=O)C=CC2=O as well.
**A:** 4.17

**Q:** Entry C=CCOc1cccc2c1C(=O)C=CC2=O please
**A:** 4.72

**Q:** Please give the result for CCOc1cccc2c1C(=O)C=CC2=O too.
**A:** 4.64

**Q:** Would you kindly repeat that for CCCCCCCCCCCCCC(=O)Oc1cccc2c1C(=O)C=C(C)C2=O ?
**A:** 5.05

**Q:** Try the compound CC(C)=CCOc1cccc2c1C(=O)C=CC2=O
**A:** 5.15

**Q:** Check CCCCCCCC/C=C\CCCCCCCC(=O)Oc1cccc2c1C(=O)C=C(C)C2=O too.
**A:** 4.46

**Q:** Request: CCCCCCCCCCCCCC(=O)Oc1cccc2c1C(=O)C=CC2=O
**A:** 4.44

**Q:** What about COc1cccc2c1C(=O)C=CC2=O ?
**A:** 5.22

**Q:** Same lookup for CCCCCCCC/C=C\CCCCCCCC(=O)Oc1cccc2c1C(=O)C=CC2=O , please.
**A:** 4.11

FYI, the data here is from ChEMBL document CHEMBL3751844.
